Values were extracted from patent US7449466B2.

Kindly state Inhibitiory rate (0.5 mg/kg, p.o., %) Uterus for each of the entries shown.
MEASURED_ON: steroid sulfatase (Rattus norvegicus)
Construct: The livers and uteri were separately minced with scissors and suspended in cooled PBS containing 250 mM sucrose; from tissue; host or cells: liver and uterus of ovariectomized female SD rats (2,000 x g supernatant of homogenate)
Sequence (P15589 20-577): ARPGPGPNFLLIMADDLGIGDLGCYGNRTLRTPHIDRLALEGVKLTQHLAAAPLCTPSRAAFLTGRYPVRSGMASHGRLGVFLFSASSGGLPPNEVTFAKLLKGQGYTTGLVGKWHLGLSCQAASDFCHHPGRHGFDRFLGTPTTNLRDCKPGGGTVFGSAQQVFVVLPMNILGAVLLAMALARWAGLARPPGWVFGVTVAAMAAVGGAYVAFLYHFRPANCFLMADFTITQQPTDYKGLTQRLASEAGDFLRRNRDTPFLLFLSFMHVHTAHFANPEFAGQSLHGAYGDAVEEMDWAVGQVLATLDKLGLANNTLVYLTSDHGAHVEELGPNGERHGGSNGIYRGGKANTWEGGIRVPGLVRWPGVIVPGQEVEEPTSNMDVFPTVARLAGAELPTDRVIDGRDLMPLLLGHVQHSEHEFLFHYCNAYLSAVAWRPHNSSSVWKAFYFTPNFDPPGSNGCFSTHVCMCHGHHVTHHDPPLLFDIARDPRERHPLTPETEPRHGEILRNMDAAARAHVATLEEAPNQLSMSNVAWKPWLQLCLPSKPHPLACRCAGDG
RUN_DESCRIPTION: Steroid sulfatase inhibitory activity (in vivo), liver and uterus of ovariectomized rats after oral dosing
CONDITION_INFO: uterus; 0.5 mg/kg p.o. once a day for seven days; ovariectomized female SD rats
Give bare numbers, in %.

> print(dat)
                         structure.notation                            measured.on  unit.text  reported.value
1  NS(=O)(=O)Oc1cc(F)c(N2CCN(CCCC3CCCCC3)CC2)cc1F  steroid sulfatase (Rattus norvegicus)          %           99.32
2  NS(=O)(=O)Oc1cc(F)c(N2CCN(CCc3ccccc3)CC2)cc1F  steroid sulfatase (Rattus norvegicus)          %           99.98
3  NS(=O)(=O)Oc1ccc(N2CCN(CCCC3CCCCC3)CC2)cc1F  steroid sulfatase (Rattus norvegicus)          %           97.87

Hey, quick one: what's Inhibitiory rate (0.5 mg/kg, p.o., %) Uterus for each of these?
1. NS(=O)(=O)Oc1cc(F)c(N2CCC(CCCc3ccccc3)CC2)cc1F.O=S(=O)(O)c1ccccc1
2. NS(=O)(=O)Oc1cc(F)c(N2CCC(CCCc3ccccc3)CC2)cc1F
3. NS(=O)(=O)Oc1ccc(N2CCN(CCc3ccc(Cl)cc3)CC2)cc1F
4. NS(=O)(=O)Oc1cc(F)c(N2CCN(S(=O)(=O)Cc3ccc(Cl)cc3)CC2)cc1F

1. 100.00
2. 99.95
3. 99.98
4. 99.81
